Each recorded value in this set is attributed to patent US9670203B2.

# study.system: B-Raf (V600E) (Homo sapiens (Human), UniProt P15056, V600E)
# Sequence (P15056 whole entry V600E): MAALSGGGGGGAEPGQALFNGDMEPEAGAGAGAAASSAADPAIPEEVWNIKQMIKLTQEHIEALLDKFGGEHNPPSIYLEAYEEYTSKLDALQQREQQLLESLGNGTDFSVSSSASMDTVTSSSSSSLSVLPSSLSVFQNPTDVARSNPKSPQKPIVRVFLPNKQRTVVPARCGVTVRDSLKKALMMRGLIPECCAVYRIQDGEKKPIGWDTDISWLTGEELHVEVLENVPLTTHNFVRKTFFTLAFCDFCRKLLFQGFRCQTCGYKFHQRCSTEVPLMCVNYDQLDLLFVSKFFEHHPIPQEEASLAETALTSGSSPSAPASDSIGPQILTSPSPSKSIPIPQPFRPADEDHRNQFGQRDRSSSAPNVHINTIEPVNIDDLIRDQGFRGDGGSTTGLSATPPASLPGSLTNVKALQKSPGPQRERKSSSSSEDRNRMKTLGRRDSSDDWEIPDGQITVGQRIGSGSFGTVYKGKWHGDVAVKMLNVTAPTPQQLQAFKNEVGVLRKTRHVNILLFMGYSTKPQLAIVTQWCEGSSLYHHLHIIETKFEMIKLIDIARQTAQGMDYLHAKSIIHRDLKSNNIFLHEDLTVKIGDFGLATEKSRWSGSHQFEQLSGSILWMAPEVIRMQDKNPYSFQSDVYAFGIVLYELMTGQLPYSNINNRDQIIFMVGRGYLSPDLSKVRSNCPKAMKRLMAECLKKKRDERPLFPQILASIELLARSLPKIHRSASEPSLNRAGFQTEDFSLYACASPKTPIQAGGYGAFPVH
# experiment.notes: Raf IC50 assay, time-resolved fluorescence energy transfer, B-Raf (V600E)
# Type: biochemical
# settings: 0.1 mM ATP; read-out: IC50 (nM) B_Raf^V600E
Parameter IC50: see the listing below.
measured.property: IC50 (nM)

| compound | study.system | measured.property | readout.number |
| --- | --- | --- | --- |
| O=C1CCc2c(Oc3ccc4c(c3)[C@@H]3[C@@H](NC(=O)Nc5cccc(C(F)(F)F)c5)[C@@H]3O4)ccnc2N1 [Compound 1.71] | B-Raf (V600E) (Homo sapiens (Human), UniProt P15056, V600E) | IC50 | 3 |
| O=C1CCc2c(Oc3ccc4c(c3)[C@H]3[C@H](NC(=O)Nc5cc(F)ccc5F)[C@H]3O4)ccnc2N1 [Compound 1.43] | B-Raf (V600E) (Homo sapiens (Human), UniProt P15056, V600E) | IC50 | 1.2 |
| O=C1CCc2c(Oc3ccc4c(c3)[C@H]3[C@H](NC(=O)Nc5ccc(Cl)c(Cl)c5)[C@H]3O4)ccnc2N1 [Compound 1.28] | B-Raf (V600E) (Homo sapiens (Human), UniProt P15056, V600E) | IC50 | 5.5 |
| O=C1CCc2c(Oc3ccc4c(c3)[C@H]3[C@H](NC(=O)Nc5cccc(F)c5F)[C@H]3O4)ccnc2N1 [Compound 1.42] | B-Raf (V600E) (Homo sapiens (Human), UniProt P15056, V600E) | IC50 | 0.94 |
| CCN1CCN(Cc2ccc(NC(=O)N[C@@H]3[C@H]4Oc5ccc(Oc6ccnc7c6CCC(=O)N7)cc5[C@@H]34)cc2F)CC1 [Compound 1.74] | B-Raf (V600E) (Homo sapiens (Human), UniProt P15056, V600E) | IC50 | 821 |
| COc1ccc(NC(=O)N[C@@H]2[C@H]3Oc4ccc(Oc5ccnc6c5CCC(=O)N6)cc4[C@@H]23)c(Cl)c1 [Compound 1.4] | B-Raf (V600E) (Homo sapiens (Human), UniProt P15056, V600E) | IC50 | 1.8 |
| O=C1CCc2c(Oc3ccc4c(c3)[C@H]3[C@H](NC(=O)NC5CCCC5)[C@H]3O4)ccnc2N1 [Compound 1.51] | B-Raf (V600E) (Homo sapiens (Human), UniProt P15056, V600E) | IC50 | 0.59 |

* * *

# study.system: B-Raf (V600E) (Homo sapiens (Human), UniProt P15056, V600E)
# experiment.notes: Raf IC50 assay, time-resolved fluorescence energy transfer, B-Raf (V600E)
# Type: biochemical
# settings: 0.1 mM ATP; read-out: IC50 (nM) B_Raf^V600E
Parameter IC50: see the listing below.

| smiles.text | operator | IC50 [nM] |
| --- | --- | --- |
| COc1cccc(NC(=O)N[C@@H]2[C@H]3Oc4ccc(Oc5ccnc6c5CCC(=O)N6)cc4[C@@H]23)c1Cl | = | 1.9 |
| CN1CCN(Cc2ccc(NC(=O)N[C@@H]3[C@H]4Oc5ccc(Oc6ccnc7c6CCC(=O)N7)cc5[C@@H]34)cc2)CC1 | > | 5000 |
| CC(C)(N)c1cc(NC(=O)N[C@@H]2[C@H]3Oc4ccc(Oc5ccnc6c5CCC(=O)N6)cc4[C@@H]23)cc(C(F)(F)F)c1 | = | 7.4 |
| O=C1CCc2c(Oc3ccc4c(c3)[C@H]3[C@H](NC(=O)Nc5cccc(OC(F)(F)F)c5)[C@H]3O4)ccnc2N1 | = | 8.6 |
| O=C1CCc2c(Oc3ccc4c(c3)[C@H]3[C@H](NC(=O)Nc5cc(C(F)(F)F)ccn5)[C@H]3O4)ccnc2N1 | = | 4 |
| O=C1CCc2c(Oc3ccc4c(c3)[C@H]3[C@H](NC(=O)NC5CCOCC5)[C@H]3O4)ccnc2N1 | = | 4.2 |

* * *

# study.system: C-Raf (Y340D/Y341D) (Homo sapiens (Human), UniProt P04049, Y340D/Y341D)
# Sequence (P04049 whole entry Y340D/Y341D): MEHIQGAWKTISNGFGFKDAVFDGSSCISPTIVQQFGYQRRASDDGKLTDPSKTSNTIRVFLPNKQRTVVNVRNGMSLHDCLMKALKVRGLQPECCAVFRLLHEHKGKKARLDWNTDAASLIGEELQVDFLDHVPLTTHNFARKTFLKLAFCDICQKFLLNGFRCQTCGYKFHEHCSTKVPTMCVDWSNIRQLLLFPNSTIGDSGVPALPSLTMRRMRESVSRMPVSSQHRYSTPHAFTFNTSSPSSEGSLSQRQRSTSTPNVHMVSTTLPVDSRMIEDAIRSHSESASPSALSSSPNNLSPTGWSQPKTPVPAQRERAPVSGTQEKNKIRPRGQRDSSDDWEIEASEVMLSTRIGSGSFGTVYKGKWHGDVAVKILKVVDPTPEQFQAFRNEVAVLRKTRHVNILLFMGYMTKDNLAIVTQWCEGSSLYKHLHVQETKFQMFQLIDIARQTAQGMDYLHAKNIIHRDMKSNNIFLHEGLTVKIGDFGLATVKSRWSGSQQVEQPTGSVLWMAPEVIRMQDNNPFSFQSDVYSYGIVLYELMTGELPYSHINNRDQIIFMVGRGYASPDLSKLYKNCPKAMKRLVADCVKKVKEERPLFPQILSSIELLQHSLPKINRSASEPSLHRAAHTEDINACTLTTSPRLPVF
# experiment.notes: Raf IC50 assay, time-resolved fluorescence energy transfer, C-Raf (Y340D/Y341D)
# Assay type: biochemical
# settings: 0.1 mM ATP
measured.property: IC50

| compound | measured.property | result |
| --- | --- | --- |
| O=C1CCc2c(Oc3ccc4c(c3)[C@H]3[C@H](NC(=O)NC5CCCCC5)[C@H]3O4)ccnc2N1 [Compound 1.66] | IC50 | 0.25 nM |
| O=C1CCc2c(Oc3ccc4c(c3)[C@H]3[C@H](NC(=O)Nc5ccccc5F)[C@H]3O4)ccnc2N1 [Compound 1.21] | IC50 | 0.066 nM |
| O=C1CCc2c(Oc3ccc4c(c3)[C@H]3[C@H](NC(=O)Nc5cccc(C(F)(F)F)c5)[C@H]3O4)ccnc2N1 [Compound 1.1] | IC50 | 1.6 nM |
| O=C1CCc2c(Oc3ccc4c(c3)[C@H]3[C@H](NC(=O)NC5CCCCCC5)[C@H]3O4)ccnc2N1 [Compound 1.52] | IC50 | 0.25 nM |
| O=C1CCc2c(Oc3ccc4c(c3)[C@H]3[C@H](NC(=O)Nc5cc(C(F)(F)F)ccn5)[C@H]3O4)ccnc2N1 [Compound 1.2] | IC50 | 0.77 nM |
| O=C1CCc2c(Oc3ccc4c(c3)[C@H]3[C@H](NC(=O)Nc5ccc(Cl)c(Cl)c5)[C@H]3O4)ccnc2N1 [Compound 1.28] | IC50 | 0.77 nM |
| Cc1cc(NC(=O)N[C@@H]2[C@H]3Oc4ccc(Oc5ccnc6c5CCC(=O)N6)cc4[C@@H]23)ccc1F [Compound 1.24] | IC50 | 0.37 nM |
| O=C1CCc2c(Oc3ccc4c(c3)[C@H]3[C@H](NC(=O)Nc5cc(F)c(F)cc5F)[C@H]3O4)ccnc2N1 [Compound 1.49] | IC50 | 0.19 nM |
| O=C1CCc2c(Oc3ccc4c(c3)[C@H]3[C@H](NC(=O)Nc5cc(F)c(F)c(F)c5)[C@H]3O4)ccnc2N1 [Compound 1.47] | IC50 | 0.53 nM |
| O=C1CCc2c(Oc3ccc4c(c3)[C@H]3[C@H](NC(=O)Nc5cc(F)cc(C(F)(F)F)c5)[C@H]3O4)ccnc2N1 [Compound 1.11] | IC50 | 1.8 nM |
| O=C1CCc2c(Oc3ccc4c(c3)[C@H]3[C@H](NC(=O)Nc5cc(F)cc(F)c5)[C@H]3O4)ccnc2N1 [Compound 1.23] | IC50 | 0.3 nM |
| O=C1CCc2c(Oc3ccc4c(c3)[C@H]3[C@H](NC(=O)Nc5ccc(F)cc5F)[C@H]3O4)ccnc2N1 [Compound 1.35] | IC50 | 0.25 nM |
| Cc1cc(Cl)ccc1NC(=O)N[C@@H]1[C@H]2Oc3ccc(Oc4ccnc5c4CCC(=O)N5)cc3[C@@H]12 [Compound 1.7] | IC50 | 0.35 nM |
| O=C1CCc2c(Oc3ccc4c(c3)[C@H]3[C@H](NC(=O)N[C@@H]5CCCc6ccccc65)[C@H]3O4)ccnc2N1 [Compound 1.80] | IC50 | 0.5 nM |
| COc1ccc(CNC(=O)N[C@@H]2[C@H]3Oc4ccc(Oc5ccnc6c5CCC(=O)N6)cc4[C@@H]23)cc1 [Compound 1.3] | IC50 | 0.54 nM |
| O=C1CCc2c(Oc3ccc4c(c3)[C@H]3[C@H](NC(=O)Nc5cccc(F)c5F)[C@H]3O4)ccnc2N1 [Compound 1.42] | IC50 | 0.24 nM |
| COc1cccc(NC(=O)N[C@@H]2[C@H]3Oc4ccc(Oc5ccnc6c5CCC(=O)N6)cc4[C@@H]23)c1Cl [Compound 1.6] | IC50 | 0.33 nM |
| O=C1CCc2c(Oc3ccc4c(c3)[C@H]3[C@H](NC(=O)Nc5ccc(F)c(C(F)(F)F)c5)[C@H]3O4)ccnc2N1 [Compound 1.32] | IC50 | 1.2 nM |
| CNC(=O)c1cc(Oc2ccc3c(c2)[C@H]2[C@H](NC(=O)Nc4cc(F)c(F)cc4F)[C@H]2O3)ccn1 [Compound 2.8] | IC50 | 3 nM |

* * *

# study.system: B-Raf (V600E) (Homo sapiens (Human), UniProt P15056, V600E)
# experiment.notes: Raf IC50 assay, time-resolved fluorescence energy transfer, B-Raf (V600E)
# Format: biochemical
# settings: 0.1 mM ATP; read-out: IC50 (nM) B_Raf^V600E
measured.property: IC50 (nM)

| smiles.text | units.text | readout.number |
| --- | --- | --- |
| O=C(Nc1ccc(F)cc1F)N[C@@H]1[C@H]2Oc3ccc(Oc4ccncn4)cc3[C@@H]12 | nM | 1100 |
| O=C1CCc2c(Oc3ccc4c(c3)[C@H]3[C@H](NC(=O)Nc5cc(F)c(F)c(F)c5)[C@H]3O4)ccnc2N1 | nM | 4.1 |
| O=C1CCc2c(Oc3ccc4c(c3)[C@H]3[C@H](NC(=O)Nc5cccc(C(F)(F)F)c5)[C@H]3O4)ccnc2N1 | nM | 8.3 |
| CC(C)(C)NC(=O)N[C@@H]1[C@H]2Oc3ccc(Oc4ccnc5c4CCC(=O)N5)cc3[C@@H]12 | nM | 4.5 |
| O=C1NCc2c(Oc3ccc4c(c3)[C@H]3[C@H](NC(=O)Nc5ccc(F)c(C(F)(F)F)c5)[C@H]3O4)ccnc2N1 | nM | 11 |
| O=C(Nc1cccc(C(F)(F)F)c1)N[C@@H]1[C@H]2Oc3ccc(Oc4ccncc4)cc3[C@@H]12 | nM | 58 |
| CC(C)(C)c1ccc(NC(=O)N[C@@H]2[C@H]3Oc4ccc(Oc5ccnc6c5CCC(=O)N6)cc4[C@@H]23)cc1 | nM | 16 |
